- target or test system: T1, BMP-12 (UniProt Q7Z4P5 322-450, limits assumed)
- T1 construct: also called BMP12/GDF7
- T1 sequence (looked up): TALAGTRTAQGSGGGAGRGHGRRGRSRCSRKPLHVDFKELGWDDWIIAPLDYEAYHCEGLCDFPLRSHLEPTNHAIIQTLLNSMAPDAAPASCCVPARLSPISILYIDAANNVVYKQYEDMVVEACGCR
- test method notes: peptide resin, filter plate; load 3: 25 mM Na Acetate pH 5.0
No end group written: not given here.
readout: 100 mM HAc elution conc (mg/mL)

Ac-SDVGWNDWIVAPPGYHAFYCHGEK [BMP2 N-trun peptide 750]
0.226

A = Ac-VAPPGYHAFYSHGEK [BMP2 N-trunc_2 peptide 745]
B = Ac-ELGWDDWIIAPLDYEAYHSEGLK [BMP12 N-trun_1S peptide 749]
[ask] Which gives the smaller 100 mM HAc elution conc number: A or B ? Selection: enter the item's label.
[reply] A
(A: 0.073 mg/mL, B: 0.275 mg/mL)
